tested on: S. aureus ATCC 25923; type: cell-based, Staphylococcus aureus; conditions: ATCC 25923, 24 h
Where a SMILES comes first, the peptide text is derived from it. [ ]: non-standard residue; d: D form. The star is where a group is joined. NMeF = CN[C@@H](Cc1ccccc1)C(=O)O; NMeK = CN[C@@H](CCCCN)C(=O)O; Decanoyl = CCCCCCCCCC(=O)*
Parameter Measured: MIC (µM)
Return type: number; implicit unit µM.

Kindly note: S. aureus ATCC 25923, CCCCCCCCCC(=O)N[C@H](C(=O)N[C@@H](CCCCN)C(=O)N[C@@H](CCC(N)=O)C(=O)N[C@H](C(=O)N[C@@H](CCCCN)C(=O)N[C@@H](CCCCN)C(=O)N[C@@H](CC(C)C)C(=O)N(C)[C@@H](Cc1ccccc1)C(=O)N[C@@H](CCCCN)C(=O)N[C@@H](CCCCN)C(N)=O)C(C)C)[C@@H](C)CC [C10:0-A2(8-NMePhe), C10:0-IKQVKKL(NMe-F)KK-NH2] (Decanoyl-IKQVKKL[NMeF]KK-NH2) , MIC value reported: 2.8

The compound CCCCCCCCCC(=O)N[C@H](C(=O)N[C@@H](CCCCN)C(=O)N[C@@H](CCC(N)=O)C(=O)N[C@H](C(=O)N[C@@H](CCCCN)C(=O)N[C@@H](CCCCN)C(=O)N[C@@H](CC(C)C)C(=O)N[C@@H](Cc1ccccc1)C(=O)N(C)[C@@H](CCCCN)C(=O)N[C@@H](CCCCN)C(N)=O)C(C)C)[C@@H](C)CC [C10:0-A2(9-NMeLys), C10:0-IKQVKKLF(NMe-K)K-NH2] (Decanoyl-IKQVKKLF[NMeK]K-NH2) on S. aureus ATCC 25923: MIC was 2.8

---

tested on: C. albicans PEEC 2; assay type: cell-based, Candida albicans; settings: PEEC 2, 24 h
Where a SMILES comes first, the peptide text is derived from it. [ ]: non-standard residue; d: D form. The star is where a group is joined. NMeF = CN[C@@H](Cc1ccccc1)C(=O)O; Decanoyl = CCCCCCCCCC(=O)*
Task for the reader: assign each of the following compounds its reported MIC.
Give a bare numeral; the unit µM is implied.

Query CC(C)C[C@H](NC(=O)[C@H](CCCCN)NC(=O)[C@H](CCCCN)NC(=O)[C@H](Cc1ccccc1)N(C)C(=O)[C@H](CC(C)C)NC(=O)[C@H](CCCCN)NC(=O)[C@H](CCCCN)NC(=O)[C@H](Cc1ccccc1)N(C)C(=O)[C@H](CC(C)C)NC(=O)[C@@H](N)CCCCN)C(=O)N[C@@H](Cc1ccccc1)C(=O)N[C@@H](CCCCN)C(N)=O [TA4(3,7-NMePhe), KL(NMeF)KKL(NMeF)KKLFK-NH2] (H-KL[NMeF]KKL[NMeF]KKLFK-NH2; N-terminus assumed) yields MIC of 80.2

Sample CCCCCCCCCC(=O)N[C@H](C(=O)N[C@@H](CCCCN)C(=O)N[C@@H](CCC(N)=O)C(=O)N[C@H](C(=O)N[C@@H](CCCCN)C(=O)N[C@@H](CCCCN)C(=O)N[C@@H](CC(C)C)C(=O)N(C)[C@@H](Cc1ccccc1)C(=O)N[C@@H](CCCCN)C(=O)N[C@@H](CCCCN)C(N)=O)C(C)C)[C@@H](C)CC [C10:0-A2(8-NMePhe), C10:0-IKQVKKL(NMe-F)KK-NH2] (Decanoyl-IKQVKKL[NMeF]KK-NH2) ; MIC observed: 179.5

---

assay: Hemolysis assay; format: cell-based, human; settings: human, erythrocytes (red blood cells); at higher concentrations (400 μM)
Where a SMILES comes first, the peptide text is derived from it. The star is where a group is joined. Decanoyl = CCCCCCCCCC(=O)*
Parameter Measured: hemolysis at 60 min, 400 µM

// hemolysis at 60 min, 400 µM lookup, compound = CCCCCCCCCC(=O)N[C@H](C(=O)N[C@@H](CCCCN)C(=O)N[C@@H](CCC(N)=O)C(=O)N[C@H](C(=O)N[C@@H](CCCCN)C(=O)N[C@@H](CCCCN)C(=O)N[C@@H](CC(C)C)C(=O)N[C@@H](Cc1ccccc1)C(=O)N[C@@H](CCCCN)C(=O)N[C@@H](CCCCN)C(N)=O)C(C)C)[C@@H](C)CC [C10:0-A2, C10:0-IKQVKKLFKK-NH2] (Decanoyl-IKQVKKLFKK-NH2) , result: ~45%

---

test system: S. aureus ATCC 25923; format: cell-based, Staphylococcus aureus; conditions: ATCC 25923, 24 h
Where a SMILES comes first, the peptide text is derived from it. [ ]: non-standard residue; d: D form. The star is where a group is joined. NMeK = CN[C@@H](CCCCN)C(=O)O; Decanoyl = CCCCCCCCCC(=O)*
Parameter Measured: MIC (µM)
# output: bare number, implied unit µM

Considering CCCCCCCCCC(=O)N[C@H](C(=O)N[C@@H](CCCCN)C(=O)N[C@@H](CCC(N)=O)C(=O)N[C@H](C(=O)N[C@@H](CCCCN)C(=O)N(C)[C@@H](CCCCN)C(=O)N[C@@H](CC(C)C)C(=O)N[C@@H](Cc1ccccc1)C(=O)N[C@@H](CCCCN)C(=O)N[C@@H](CCCCN)C(N)=O)C(C)C)[C@@H](C)CC [C10:0-A2(6-NMeLys), C10:0-IKQVK(NMe-K)LFKK-NH2] (Decanoyl-IKQVK[NMeK]LFKK-NH2) , its MIC with S. aureus ATCC 25923 was recorded as 1.4

---

tested on: Human erythrocytes; assay: Hemolysis assay; type: cell-based; conditions: human erythrocytes 0.4% (v/v), 37 °C, 60 min, 6.25 to 400 µM
Where a SMILES comes first, the peptide text is derived from it. [ ]: non-standard residue; d: D form. The star is where a group is joined. NMeF = CN[C@@H](Cc1ccccc1)C(=O)O; NMeK = CN[C@@H](CCCCN)C(=O)O; Decanoyl = CCCCCCCCCC(=O)*
Would you mind telling me the reported HC50 ± SD of each entry?

HC50 ± SD in this record for CCCCCCCCCC(=O)N[C@H](C(=O)N[C@@H](CCCCN)C(=O)N[C@@H](CCC(N)=O)C(=O)N[C@H](C(=O)N[C@@H](CCCCN)C(=O)N(C)[C@@H](CCCCN)C(=O)N[C@@H](CC(C)C)C(=O)N[C@@H](Cc1ccccc1)C(=O)N[C@@H](CCCCN)C(=O)N[C@@H](CCCCN)C(N)=O)C(C)C)[C@@H](C)CC [C10:0-A2(6-NMeLys), C10:0-IKQVK(NMe-K)LFKK-NH2] (Decanoyl-IKQVK[NMeK]LFKK-NH2) : >400 µM

For record CC(C)C[C@H](NC(=O)[C@H](CCCCN)NC(=O)[C@H](CCCCN)NC(=O)[C@H](Cc1ccccc1)N(C)C(=O)[C@H](CC(C)C)NC(=O)[C@H](CCCCN)NC(=O)[C@H](CCCCN)NC(=O)[C@H](Cc1ccccc1)N(C)C(=O)[C@H](CC(C)C)NC(=O)[C@@H](N)CCCCN)C(=O)N[C@@H](Cc1ccccc1)C(=O)N[C@@H](CCCCN)C(N)=O [TA4(3,7-NMePhe), KL(NMeF)KKL(NMeF)KKLFK-NH2] (H-KL[NMeF]KKL[NMeF]KKLFK-NH2; N-terminus assumed) the listed HC50 ± SD is >400 µM

Given item CCCCCCCCCC(=O)N[C@H](C(=O)N[C@H](CCCCN)C(=O)N[C@@H](CCC(N)=O)C(=O)N[C@H](C(=O)N[C@H](CCCCN)C(=O)N[C@H](CCCCN)C(=O)N[C@@H](CC(C)C)C(=O)N[C@@H](Cc1ccccc1)C(=O)N[C@H](CCCCN)C(=O)N[C@H](CCCCN)C(N)=O)C(C)C)[C@@H](C)CC [C10:0-A2(dK), C10:0-IdKQVdKdKLFdKdK-NH2] (Decanoyl-I[dK]QV[dK][dK]LF[dK][dK]-NH2) , the value recorded as its HC50 ± SD is >400 µM

---

tested on: Yeast; conditions: 24 h
Where a SMILES comes first, the peptide text is derived from it. [ ]: non-standard residue; d: D form. The star is where a group is joined. NMeF = CN[C@@H](Cc1ccccc1)C(=O)O; NMeK = CN[C@@H](CCCCN)C(=O)O; Decanoyl = CCCCCCCCCC(=O)*
Parameter Measured: MIC Average Yeast
# answer = value followed by unit

Note to self: MIC Average Yeast recorded for CCCCCCCCCC(=O)N[C@H](C(=O)N[C@@H](CCCCN)C(=O)N[C@@H](CCC(N)=O)C(=O)N[C@H](C(=O)N[C@@H](CCCCN)C(=O)N[C@@H](CCCCN)C(=O)N[C@@H](CC(C)C)C(=O)N(C)[C@@H](Cc1ccccc1)C(=O)N[C@@H](CCCCN)C(=O)N[C@@H](CCCCN)C(N)=O)C(C)C)[C@@H](C)CC [C10:0-A2(8-NMePhe), C10:0-IKQVKKL(NMe-F)KK-NH2] (Decanoyl-IKQVKKL[NMeF]KK-NH2) was 179.5 µM

Data point: CCCCCCCCCC(=O)N[C@H](C(=O)N[C@@H](CCCCN)C(=O)N[C@@H](CCC(N)=O)C(=O)N[C@H](C(=O)N[C@@H](CCCCN)C(=O)N(C)[C@@H](CCCCN)C(=O)N[C@@H](CC(C)C)C(=O)N[C@@H](Cc1ccccc1)C(=O)N[C@@H](CCCCN)C(=O)N[C@@H](CCCCN)C(N)=O)C(C)C)[C@@H](C)CC [C10:0-A2(6-NMeLys), C10:0-IKQVK(NMe-K)LFKK-NH2] (Decanoyl-IKQVK[NMeK]LFKK-NH2) ; MIC Average Yeast = 67.3 µM

// recorded MIC Average Yeast for CCCCCCCCCC(=O)N[C@H](C(=O)N[C@@H](CCCCN)C(=O)N[C@@H](CCC(N)=O)C(=O)N[C@H](C(=O)N(C)[C@@H](CCCCN)C(=O)N[C@@H](CCCCN)C(=O)N[C@@H](CC(C)C)C(=O)N[C@@H](Cc1ccccc1)C(=O)N[C@@H](CCCCN)C(=O)N[C@@H](CCCCN)C(N)=O)C(C)C)[C@@H](C)CC [C10:0-A2(5-NMeLys), C10:0-IKQV(NMe-K)KLFKK-NH2] (Decanoyl-IKQV[NMeK]KLFKK-NH2) : 179.5 µM
